Reference for the values: PubChem BioAssay

TARGET OR TEST SYSTEM: NADPH oxidase 4 (Homo sapiens)
MEASUREMENT PROTOCOL: NOX4-dependent H2O2 signal modulators, primary screen, NOX inhibitor project, cell-based, HEK293-NOX4, tetracycline-induced, Amplex Red fluorescence (AID 1160)
CONDITION LABEL: 45 min, higher = more signal, called active from +8 up or from −8 down
Activity calls are given as the source filed them.
ASSAY METRIC: z-score

Request: Give measured z-score for "CC1=C[C@@]2(CO)C(=O)[C@]3(CO3)[C@@H]1[C@H]1[C@]2(C)C=C(CO)C(=O)[C@]12CO2" (NADPH oxidase 4 (Homo sapiens)).
Response: -1.07 (inactive)

Request: Provide z-score, tested on NADPH oxidase 4 (Homo sapiens), for "O=C1N(Cc2ccccc2)Cc2ccccc2[C@@H]2OC(c3ccc(OCCCO)cc3)=N[C@]12CCS(=O)(=O)c1ccccc1" .
Response: 1.23 (inactive)

Request: Write down the reported z-score (system: NADPH oxidase 4 (Homo sapiens)) of "[N-]=[N+]=Nc1ccccc1C[C@]1(C(=O)N2CCOCC2)N=C(c2ccc(OCCCO)cc2)O[C@H]1c1ccccc1"
Response: 0.719 (inactive)

Request: Answer briefly: z-score recorded on NADPH oxidase 4 (Homo sapiens) for "CCCCO[C@H]1C[C@H]2C(I)=C[C@@H]1C(=O)[C@]21CO1"
Response: 0.609 (inactive)

Request: Given "C=CCOC(=O)[C@H]1[C@@H]2C(=O)O[C@@H](c3ccccc3)[C@@H](c3ccccc3)N2[C@@H](c2ccc(OCCOC(=O)[C@@H]3C[C@@H]4C(=O)N[C@@H](CCCCN(C)C)C(=O)N4[C@@H]3c3ccc(O)cc3)cc2)[C@]12C(=O)Nc1ccccc12" , report its z-score on NADPH oxidase 4 (Homo sapiens).
Response: 0.874 (inactive)

Request: Report value only: z-score, NADPH oxidase 4 (Homo sapiens), O=C1C2C=CC(C(O)c3ccc(F)cc3)N(n3cnnc3)C2C(=O)N1Cc1ccccc1 (stereo unspecified)
Response: -1.12 (inactive)

Request: Specify the recorded z-score for "CCOC(=O)C1=C[C@@H](c2ccccc2)N(S(=O)(=O)c2ccc(C)cc2)[C@H]1c1ccccc1Cl" , system: NADPH oxidase 4 (Homo sapiens).
Response: 0.138 (inactive)

Request: Provide measured z-score on NADPH oxidase 4 (Homo sapiens) for COc1ccc(C(O)C2C=CC3C(=O)N(c4ccccc4)C(=O)C3N2Nc2ccc([N+](=O)[O-])cc2)cc1 (stereo unspecified) please.
Response: -2.79 (inactive)

Request: Under NADPH oxidase 4 (Homo sapiens), report z-score for "CC(C)N1C(=O)c2ccccc2[C@@H](C(=O)NC2CC2)[C@@H]1c1ccc(CO)cc1"
Response: 0.708 (inactive)

Request: State recorded z-score with NADPH oxidase 4 (Homo sapiens), entry N#Cc1ccc(C(O)C2C=CC3C(=O)N(c4ccccc4)C(=O)C3N2Nc2ccccc2)cc1 (stereo unspecified) , no comment.
Response: -4.19 (inactive)

Request: Report the value of z-score obtained on NADPH oxidase 4 (Homo sapiens) for O=C1C2C=CC(C(O)c3ccccc3)N(Nc3ccccc3F)C2C(=O)N1c1ccccc1 (stereo unspecified) .
Response: -3.6 (inactive)

Request: Quote NADPH oxidase 4 (Homo sapiens) z-score for entry "C=C(/C(=C/C[C@@H](OC(C)=O)c1cccc(OCCO)c1)c1cc(C(=O)OC)ccc1OC)C(C)C" .
Response: -1.07 (inactive)

Request: Answer briefly: z-score recorded on NADPH oxidase 4 (Homo sapiens) for C=CCC(OC(C)=O)[C@@H]1[C@@H](N(Cc2cccc3ccccc23)C(=O)Cc2ccc(OC)cc2)c2cc(OCCCO)ccc2N1C(=O)c1ccc2ccccc2n1 (stereo partly specified)
Response: -0.588 (inactive)

Request: Quote NADPH oxidase 4 (Homo sapiens) z-score for entry "CCCCC=C[C@@H](NC(=O)c1ccc(-c2ccccc2)cc1)c1ccccc1" .
Response: -1.12 (inactive)

Request: // fetch z-score; item: "COc1ccccc1CN1C(=O)c2ccccc2[C@@]2(Cc3ccccc3N(CC(F)(F)F)C2=O)[C@@H]1c1ccc(CO)cc1" ; system: NADPH oxidase 4 (Homo sapiens)
Response: -0.565 (inactive)

Request: Lab note: record z-score of "[N-]=[N+]=Nc1ccccc1[C@H]1OC(c2ccc(OCCCO)cc2)=N[C@@]1(CCS(=O)(=O)c1ccccc1)C(=O)NCCN1CCOCC1" tested on NADPH oxidase 4 (Homo sapiens).
Response: -0.233 (inactive)
